# Tested on: Italian ryegrass (Lolium multiflorum)
# protocol_details: Test B pre-/postemergence plant response
# Assay type: in vivo
# test_context: Postemergence, 250 g ai/ha; scale 0 to 100 (0 no effect, 100 complete control)
measured_metric: Plant response rating, Ryegrass, Italian
One number for each entry.

Illustrative cases are given below, each with its answer.
Query string: Send back Italian ryegrass (Lolium multiflorum) Plant response rating, Ryegrass, Italian of O=C1CCCC(O)=C1C(=O)c1cnc(-c2cccc(Cl)c2)n(-c2ccc(Cl)cc2)c1=O [Compound 64] only.
Result string: 30

Query string: Send back Italian ryegrass (Lolium multiflorum) Plant response rating, Ryegrass, Italian of CCCCCn1c(-c2ccccc2)ncc(C(=O)C2=C(O)CCCC2=O)c1=O [Compound 89] only.
Result string: 30

Query string: Send back Italian ryegrass (Lolium multiflorum) Plant response rating, Ryegrass, Italian of CCCn1c(-c2ccc(F)cc2)ncc(C(=O)C2=C(O)CCCC2=O)c1=O [Compound 102] only.
Result string: 10

Query string: Send back Italian ryegrass (Lolium multiflorum) Plant response rating, Ryegrass, Italian of Cc1cc(-n2c(-c3ccccc3)ncc(C(=O)C3=C(O)CCCC3=O)c2=O)ccc1F [Compound 53] only.
Result string: 45

Query string: Send back Italian ryegrass (Lolium multiflorum) Plant response rating, Ryegrass, Italian of CCCc1ncc(C(=O)C2=C(O)CCCC2=O)c(=O)n1-c1ccccc1C [Compound 73] only.
Result string: 70

Query string: Send back Italian ryegrass (Lolium multiflorum) Plant response rating, Ryegrass, Italian of O=C1CCCC(O)=C1C(=O)c1cnc(-c2ccccc2Br)n(-c2ccccc2)c1=O [Compound 71] only.
Result string: 5

Parameters: items (list). Returns: Plant response rating, Ryegrass, Italian for each item.
1. Cc1ccc(-c2ncc(C(=O)C3=C(O)CCCC3=O)c(=O)n2-c2ccccc2)cc1 [Compound 80]
2. COCCCn1c(-c2cc(F)cc(F)c2)ncc(C(=O)C2=C(O)CCCC2=O)c1=O [Compound 120]
3. Cn1c(-c2ccccc2)ncc(C(=O)C2=C(O)CCCC2=O)c1=O [Compound 55]
4. COCCn1c(-c2cccc(C)c2)ncc(C(=O)C2=C(O)CCCC2=O)c1=O [Compound 117]

Result string:
1: 5; 2: 80; 3: 0; 4: 50

* * *

# Tested on: umbrella sedge (Cyperus difformis)
# protocol_details: Test B flooded paddy test
# Assay type: in vivo
# test_context: 250 g ai/ha; flooded paddy test; visual rating on 0 to 100 scale (0 no effect, 100 complete control) after 13 to 15 days
For each entry below, report its Plant response rating, Flood, Sedge, Umbrella value.
Numbers only.

Query string: Indicate the recorded Plant response rating, Flood, Sedge, Umbrella value for this compound: O=C(C1=C(O)C2CCC(C2)C1=O)c1cnc(-c2ccccc2)n(C2CCCCC2)c1=O (centres unmarked) [Compound 248]
Result string: 85

Query string: Indicate the recorded Plant response rating, Flood, Sedge, Umbrella value for this compound: CCCn1c(-c2ccc(F)cc2)ncc(C(=O)C2=C(O)CCCC2=O)c1=O [Compound 102]
Result string: 75

Query string: Indicate the recorded Plant response rating, Flood, Sedge, Umbrella value for this compound: O=C1CCCC(O)=C1C(=O)c1cnc(-c2cc(F)cc(F)c2)n(-c2ccccc2)c1=O [Compound 161]
Result string: 60

Query string: Indicate the recorded Plant response rating, Flood, Sedge, Umbrella value for this compound: CCn1c(-c2cccc(Cl)c2)ncc(C(=O)C2=C(O)CCCC2=O)c1=O [Compound 145]
Result string: 80

Query string: Indicate the recorded Plant response rating, Flood, Sedge, Umbrella value for this compound: CC(C)n1c(-c2ccccc2)ncc(C(=O)C2=C(O)CCCC2=O)c1=O [Compound 95]
Result string: 75

Query string: Indicate the recorded Plant response rating, Flood, Sedge, Umbrella value for this compound: CCCn1c(-c2cccc(C(F)(F)F)c2)ncc(C(=O)C2=C(O)CCCC2=O)c1=O [Compound 155]
Result string: 100

Query string: Indicate the recorded Plant response rating, Flood, Sedge, Umbrella value for this compound: O=C1CCCC(O)=C1C(=O)c1cnc(-c2ccccc2)n(-c2cccc(Br)c2)c1=O [Compound 38]
Result string: 40

New cases:
Query string: Indicate the recorded Plant response rating, Flood, Sedge, Umbrella value for this compound: CCCCn1c(-c2ccccc2)ncc(C(=O)C2=C(O)CCCC2=O)c1=O [Compound 86]
Result string: 85

All values here come from patent US8952024B2.
